- tested.on: one or more of HDAC-1, HDAC-2, HDAC-3, HDAC-4, HDAC-5, HDAC-6, HDAC-7, HDAC-8, HDAC-9, HDAC-10 and HDAC-11
- assay.details: Inhibition of Histone Deacetylase Enzymatic Activity (Boc-Lys(Ac)-AMC substrate, Fluor-de-Lys developer)
- Type: biochemical
- test.context: Table 10; read-out: HDAC Inhibition (IC50 μM) HDAC Enzyme
recorded.endpoint: IC50

So what's the measured IC50 for this one? O=C(NO)c1ccc(OCCN2C(=O)c3ccncc3Oc3ccccc32)cc1
< 0.05 µM

So what's the measured IC50 for this one? O=C(NO)c1cnc(NC2c3ccccc3CCc3ccccc32)nc1
< 0.05 µM

So what's the measured IC50 for this one? O=C(NO)c1cccc(CNC2c3ccccc3CCc3ccccc32)c1
0.1 to 1 µM

So what's the measured IC50 for this one? O=C(CCCCCCN1C(=O)c2ccccc2Sc2ccccc21)NO
< 0.05 µM

So what's the measured IC50 for this one? O=C(CCCON=C1c2ccccc2CCc2ccccc21)NO
0.1 to 1 µM

So what's the measured IC50 for this one? O=C(NO)c1ccc(OCCN2C(=O)c3ccccc3Oc3ccccc32)c(F)c1
0.05 to 0.1 µM

So what's the measured IC50 for this one? O=C(NO)c1ccc(CON=C2c3ccccc3CCc3ccccc32)cc1
0.1 to 1 µM

So what's the measured IC50 for this one? O=C(NO)c1ccc(CN(c2ccccc2)c2ccccc2)cc1
0.1 to 1 µM

So what's the measured IC50 for this one? O=C(NO)c1cccc(CN2c3ccccc3C=Cc3ccccc32)c1
0.1 to 1 µM

So what's the measured IC50 for this one? O=C(NO)c1ccc(C#CCN2C(=O)c3ccccc3Oc3ccccc32)cc1
< 0.05 µM

So what's the measured IC50 for this one? O=C(CCCCCCN1C(=O)c2ccccc2N(C2CC2)c2ccccc21)NO
0.1 to 1 µM

So what's the measured IC50 for this one? O=C(/C=C/c1ccc2c(c1)C=Cc1ccccc1N2CC1CC1)NO
0.1 to 1 µM

So what's the measured IC50 for this one? O=C(/C=C/c1ccc(CN2C(=O)c3ccccc3Oc3ccccc32)cc1)NO
< 0.05 µM

So what's the measured IC50 for this one? O=C(CCCCCON=c1c2ccccc2ccc2ccccc12)NO
0.1 to 1 µM

So what's the measured IC50 for this one? O=C(NO)c1cccc(CN(c2ccccc2)c2ccccc2)c1
1 to 10 µM

So what's the measured IC50 for this one? O=C(NO)c1cccc(CN2c3ccccc3Oc3ccccc32)c1
1 to 10 µM

So what's the measured IC50 for this one? O=C(CCCCCCC(=O)N1Cc2ccccc2Oc2ccccc21)NO
0.1 to 1 µM

So what's the measured IC50 for this one? O=C(CCCCCN1C(=O)c2cccnc2N(C2CC2)c2ccccc21)NO
0.1 to 1 µM

So what's the measured IC50 for this one? O=C(NO)c1cnc(N2C[C@H]3C[C@@]3(c3ccccc3)C2)nc1
0.1 to 1 µM

So what's the measured IC50 for this one? O=C(NO)c1cccc(COC2c3ccccc3CCc3ccccc32)c1
0.1 to 1 µM

So what's the measured IC50 for this one? O=C(NO)c1cnc(NC2c3ccccc3C=Cc3ccccc32)nc1
< 0.05 µM

So what's the measured IC50 for this one? O=C(NO)c1ccc(OCCN2CCOc3ccccc3C2=O)cc1
< 0.05 µM

So what's the measured IC50 for this one? O=C(/C=C/c1ccc(CNC2c3ccccc3CCc3ccccc32)cc1)NO
0.05 to 0.1 µM
